# targetOrTestSystem: human GLP-1 receptor (human, UniProt P43220 24-463)
# protocol: cell-based or functional assay
Numbered stars: 1 amine (or outer) side, 2 acyl side, 3 side chain; on linkers, the order of the positions; unused ones are H or OH. Square brackets hold non-standard residues; d marks the D form. Side chains are listed from the residue outwards. * marks the point of attachment. C20 diacid = O=C(O)CCCCCCCCCCCCCCCCCCC(=O)*; C18 diacid = O=C(O)CCCCCCCCCCCCCCCCC(=O)*; C16 diacid = O=C(O)CCCCCCCCCCCCCCC(=O)*; γGlu = O=C(O)[C@H](CCC(=O)[*:2])N[*:1]; Chem. 28 = not defined here; AEEA = NCCOCCOCC(=O)O; Aib = CC(C)(N)C(=O)O
Kindly apply the following: true (1) if hGLP-1R Potency, no HSA, EC50 [pM] is less than 4 pM, false (0) in every other case.

- binder: "Compound 51 (reading uncertain) peptide: H[Aib]HGTFTSDYSILLEEQAAREFIEWLLAGGPSSGALAQTLAQTLASHLSTAQTQRLSAELHK(Chem. 28)LATLPRTETGSGSP-NH2"
  assignedClass: "false (0)"
- binder: "Compound 90 (peptide) peptide: H[Aib]HGTFTSDYSILLEEQAAREFIEWLLAGGPSSGEASHLSTAALGRLSAELHRLATLPK([AEEA-AEEA-γGlu-C18 diacid])TETGSGSP-NH2"
  assignedClass: "false (0)"
- binder: "Compound 80 (peptide) peptide: Y[Aib]EGTFTSDYSILLEEQAAREFIEWLLAGGPSSGEASHLSTAQTQRLSAELHRLK([AEEA-AEEA-γGlu-C18 diacid])TLPRTETGSGSP-NH2"
  assignedClass: "false (0)"
- binder: "Compound 74 (peptide) peptide: Y[Aib]EGTFTSDYSILLEEQAAREFIEWLLAGGPSGGEASHLSTAQTQRLSAELHK([AEEA-AEEA-γGlu-C18 diacid])LATLPRTETGSGSP-NH2"
  assignedClass: "false (0)"
- binder: "Compound 110 (not fully specified) peptide: Y[Aib]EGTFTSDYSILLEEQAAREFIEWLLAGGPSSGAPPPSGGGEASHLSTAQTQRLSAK([AEEA-AEEA-γGlu-C20 diacid])LHRLATLPRTETGSGSP-NH2"
  assignedClass: "false (0)"
- binder: "Compound 47 (reading uncertain) peptide: H[Aib]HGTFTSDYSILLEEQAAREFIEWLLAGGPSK(Chem. 28)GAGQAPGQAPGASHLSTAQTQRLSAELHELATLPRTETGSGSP-NH2"
  assignedClass: "true (1)"
- binder: "Compound 14 (peptide) peptide: H[Aib]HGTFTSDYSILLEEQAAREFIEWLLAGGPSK([AEEA-AEEA-γGlu-C18 diacid])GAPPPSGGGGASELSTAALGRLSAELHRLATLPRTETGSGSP-NH2"
  assignedClass: "true (1)"
- binder: "Compound 101 (reading uncertain) peptide: H[Aib]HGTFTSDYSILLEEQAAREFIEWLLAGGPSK(Chem. 28)GAPPPSGGGEASHLSTAQTARLSAELHQLATLPRTETGSGSP-NH2"
  assignedClass: "true (1)"
- binder: "Compound 105 (reading uncertain) peptide: Y[Aib]EGTFTSDYSILLEEQAAREFIEWLLAGGPSSGALQAPGQAPLASHLSTAQTARLSAELHK(Chem. 28)LATLPRTETGSGSP-NH2"
  assignedClass: "false (0)"
- binder: "Compound 109 (not fully specified; reading uncertain) peptide: Y[Aib]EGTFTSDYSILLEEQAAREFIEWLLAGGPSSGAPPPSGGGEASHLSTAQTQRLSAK(Chem. 28)LHRLATLPRTETGSGSP-NH2"
  assignedClass: "false (0)"
- binder: "Compound 39 (reading uncertain) peptide: Y[Aib]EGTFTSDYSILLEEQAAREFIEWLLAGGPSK(Chem. 28)GGQEPGQEPGEASHLSTAQTQRLSAELHELATLPRTETGSGSP-NH2"
  assignedClass: "false (0)"
- binder: "Compound 29 (reading uncertain) peptide: Y[Aib]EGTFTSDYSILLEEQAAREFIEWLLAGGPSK(Chem. 28)GEASELSTAALGRLSAELHYLATLPRTETGSGSP-NH2"
  assignedClass: "false (0)"
- binder: "Compound 57 (reading uncertain) peptide: Y[Aib]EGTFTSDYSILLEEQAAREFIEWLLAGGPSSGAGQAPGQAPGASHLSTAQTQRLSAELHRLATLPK(Chem. 28)TETGSGSP-NH2"
  assignedClass: "false (0)"
- binder: "Compound 48 (reading uncertain) peptide: Y[Aib]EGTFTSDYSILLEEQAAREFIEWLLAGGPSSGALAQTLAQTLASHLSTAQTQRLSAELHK(Chem. 28)LATLPRTETGSGSP-NH2"
  assignedClass: "false (0)"
- binder: "Compound 12 (peptide) peptide: H[Aib]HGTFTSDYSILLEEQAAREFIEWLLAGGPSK([AEEA-AEEA-γGlu-C16 diacid])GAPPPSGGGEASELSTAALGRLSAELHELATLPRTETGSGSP-NH2"
  assignedClass: "true (1)"
- binder: "Compound 84 (peptide) peptide: H[Aib]HGTFTSDYSILLEEQAAREFIEWLLAGGPSSGEASHLSTAQTQRLSAELHRLATLPK([AEEA-AEEA-γGlu-C18 diacid])TETGSGSP-NH2"
  assignedClass: "true (1)"
